# IC50 per entry
# tested_on: Recombinant STAT6 protein (STAT6(W123-T658)) (Homo sapiens, UniProt P42226)
# Construct: STAT6(W123-T658)
# Sequence (P42226 123-658): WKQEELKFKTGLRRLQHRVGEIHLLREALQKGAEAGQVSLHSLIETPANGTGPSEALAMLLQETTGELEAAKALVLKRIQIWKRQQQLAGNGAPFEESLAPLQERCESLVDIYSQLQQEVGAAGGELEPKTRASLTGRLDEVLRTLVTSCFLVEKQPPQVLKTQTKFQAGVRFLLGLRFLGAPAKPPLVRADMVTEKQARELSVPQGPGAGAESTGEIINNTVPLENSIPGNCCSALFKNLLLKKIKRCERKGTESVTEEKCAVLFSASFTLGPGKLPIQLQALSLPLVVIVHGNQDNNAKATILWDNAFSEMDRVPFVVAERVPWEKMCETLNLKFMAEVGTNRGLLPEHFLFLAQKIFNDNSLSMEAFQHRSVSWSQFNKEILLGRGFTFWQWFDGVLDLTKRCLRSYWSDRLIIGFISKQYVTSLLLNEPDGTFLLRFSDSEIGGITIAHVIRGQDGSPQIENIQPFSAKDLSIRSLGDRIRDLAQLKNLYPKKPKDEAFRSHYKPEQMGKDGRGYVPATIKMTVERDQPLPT
# method_description: STAT6 Fluorescence Polarization (FP) Assay
# conditions_used: STAT6(W123-T658) 250 nM, probe 5-FAM-ApYKPFQDLI-NH2 2 nM, 45-minute incubation

Consider the reported IC50 for these compounds:
>  <compound>
CC(=O)N1C[C@H](NC(=O)[C@@H]2CC[C@@H]3C[C@@H]4C[C@@H]4C[C@H](NC(=O)c4cc5cc(C(F)(F)P(=O)(O)O)ccc5s4)C(=O)N32)[C@@H](F)C1 [Compound 126]

>  <IC50>
0.3 to 3 µM

$$$$
>  <compound>
N#CC1(c2ccccn2)CN(C(=O)[C@@H]2CC[C@@H]3C[C@@H]4C[C@@H]4C[C@H](NC(=O)c4cc5cc(C(F)(F)P(=O)(O)O)ccc5s4)C(=O)N32)C1 [Compound 70]

>  <IC50>
0.3 to 3 µM

$$$$
>  <compound>
O=C(N[C@H]1C[C@H]2C[C@H]2C[C@H]2CC[C@@H](C(=O)N3CC[C@H](c4cnccc4F)C3)N2C1=O)c1cc2cc(C(F)P(=O)(O)O)ccc2s1 (some centres unmarked) [Example 313]

>  <IC50>
0.3 to 3 µM

$$$$
>  <compound>
Cc1cccc(C2CN(C(=O)[C@@H]3CC[C@@H]4C[C@@H]5C[C@@H]5C[C@H](NC(=O)c5cc6cc(C(F)(F)P(=O)(O)O)ccc6s5)C(=O)N43)C2)c1 [Compound 68]

>  <IC50>
0.3 to 3 µM

$$$$

Continue with the next compound.
stdin: For the record CC(c1ccc2sc(C(=O)N[C@H]3C[C@@H]4C[C@@H]4C[C@H]4CC[C@@H](C(=O)N5CC(C(=O)N6CCOCC6)C5)N4C3=O)cc2c1)P(=O)(O)O (some centres unmarked) [Compound 35] , what value of IC50 is listed for Recombinant STAT6 protein (STAT6(W123-T658)) (Homo sapiens, UniProt P42226)?
stdout: > 30 µM
